# MIC listing for each entry below
# Tested on: Moraxella catarrhalis
# METHOD: Antimicrobial activity against drug-susceptible Moraxella catarrhalis 1 after 20 hrs by agar dilution method
# Format: functional
Give the value, in units of µg/mL, as a plain number.

Some entries whose results are on file:
COMPOUND: CCOC(=O)[C@H]1[C@H](C)O[C@@H](O[C@H]2[C@H](N(C)C)[C@@H](O)[C@H](O[C@H]3[C@@H](CC=O)C[C@@H](C)[C@@H](O)CN(C)CC(CCCc4ccnc5ccccc45)CCOC(=O)C[C@@H](OC(=O)CC)[C@@H]3OC)O[C@@H]2C)C[C@@]1(C)O (stereo in doubt; form 2)
TESTED SYSTEM: Moraxella catarrhalis
MIC (µg/mL): 1

COMPOUND: CCOC(=O)[C@H]1[C@H](C)O[C@@H](O[C@H]2[C@H](N(C)C)[C@@H](O)[C@H](O[C@H]3[C@@H](CC=O)C[C@@H](C)[C@@H](O)CN(C)CC(/C=C\Cc4ccnc5ccccc45)CCOC(=O)C[C@@H](OC(=O)CC)[C@@H]3OC)O[C@@H]2C)C[C@@]1(C)O (stereo in doubt; form 2)
TESTED SYSTEM: Moraxella catarrhalis
MIC (µg/mL): 16

Now let's try a different one.
// MIC value for CCOC(=O)[C@H]1[C@H](C)O[C@@H](O[C@H]2[C@H](N(C)C)[C@@H](O)[C@H](O[C@H]3[C@@H](CC=O)C[C@@H](C)[C@@H](O)CN(C)CCC(C/C=C/c4ccnc5ccccc45)NC(=O)C[C@@H](OC(=O)CC)[C@@H]3OC)O[C@@H]2C)C[C@@]1(C)O (single isomer, unassigned) : 2
